# target_or_test_system: NK1 (Homo sapiens, UniProt P25103)
# Sequence (P25103 whole entry): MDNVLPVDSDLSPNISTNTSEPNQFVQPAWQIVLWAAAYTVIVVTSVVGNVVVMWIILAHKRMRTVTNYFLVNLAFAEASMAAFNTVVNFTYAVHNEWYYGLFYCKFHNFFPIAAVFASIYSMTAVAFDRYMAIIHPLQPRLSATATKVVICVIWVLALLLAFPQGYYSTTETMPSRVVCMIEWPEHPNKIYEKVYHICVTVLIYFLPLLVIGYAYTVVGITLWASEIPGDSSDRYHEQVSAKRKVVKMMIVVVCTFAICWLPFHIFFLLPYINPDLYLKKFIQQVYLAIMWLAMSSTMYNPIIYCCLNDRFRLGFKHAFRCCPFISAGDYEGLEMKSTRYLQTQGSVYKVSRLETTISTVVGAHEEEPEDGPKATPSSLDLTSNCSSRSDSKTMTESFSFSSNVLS
# procedure_summary: Signal transduction (ST), intracellular Ca++ (FLIPR), functional NK1 antagonistic activity
# Format: cell-based
# setup_conditions: antagonist, read-out: NK1 pIC50 (converted)
Measured IC50 accompanies every entry in the list below.
readout_type: IC50 (nM)

INSERT INTO results (structure_smiles_string, observed_value) VALUES
  ('Cn1cccc1C(=O)N1CCC2(CC1)CCN([C@H]1CCN(C(=O)c3cc(C(F)(F)F)cc(C(F)(F)F)c3)[C@H](Cc3ccccc3)C1)CC2', 200),
  ('O=C(c1cc(C(F)(F)F)cc(C(F)(F)F)c1)N1CC[C@H](N2CCC3(CC2)CCN(S(=O)(=O)c2cc(Cl)c(Cl)cc2Cl)CC3)C[C@H]1Cc1ccccc1', 490),
  ('O=C(Cn1cnnn1)N1CCC2(CC1)CCN([C@H]1CCN(C(=O)c3cc(C(F)(F)F)cc(C(F)(F)F)c3)[C@H](Cc3ccccc3)C1)CC2', 45.7),
  ('O=C(c1ccsc1)N1CCC2(CCN(C[C@H]3CCN(C(=O)c4cc(C(F)(F)F)cc(C(F)(F)F)c4)[C@H](Cc4ccccc4)C3)CC2)CC1', 38),
  ('O=C(c1cc(C(F)(F)F)cc(C(F)(F)F)c1)N1CC[C@H](N2CCC3(CC2)CCN(S(=O)(=O)c2ccc(F)cc2)CC3)C[C@H]1Cc1ccccc1', 52.5),
  ('O=C(C1=COCCC1)N1CCC2(CC1)CCN([C@H]1CCN(C(=O)c3cc(C(F)(F)F)cc(C(F)(F)F)c3)[C@H](Cc3ccccc3)C1)CC2', 79.4);

----------
# target_or_test_system: NK1 (Homo sapiens)
# procedure_summary: Signal transduction (ST), intracellular Ca++ (FLIPR), functional NK1 antagonistic activity
# Type: cell-based
# setup_conditions: antagonist, read-out: NK1 pIC50 (converted)
readout_type: log10 of IC50 (log10 of the value in nM)

INSERT INTO measurements (compound, readout_type, observed_value) VALUES
  ('O=C(c1cc(C(F)(F)F)cc(C(F)(F)F)c1)N1CC[C@H](N2CCC3(CC2)CCN(S(=O)(=O)c2cc(Cl)ccc2Cl)CC3)C[C@H]1Cc1ccccc1 [Compound 110]', 'log10 of IC50', 2.24),
  ('CC(C)(C)C(=O)N1CCCC2(CCCN([C@H]3CCN(C(=O)c4cc(C(F)(F)F)cc(C(F)(F)F)c4)[C@H](Cc4ccccc4)C3)C2)C1 (some centres unmarked) [Compound 207]', 'log10 of IC50', 2.77),
  ('O=C(c1ccsc1)N1CCC2(CC1)CCN(C(=O)[C@H]1CCN(C(=O)c3cc(C(F)(F)F)cc(C(F)(F)F)c3)[C@H](Cc3ccccc3)C1)CC2 [Compound 189]', 'log10 of IC50', 1.46),
  ('O=C(CN1CCOC1=O)N1CCC2(CC1)CCN([C@H]1CCN(C(=O)c3cc(C(F)(F)F)cc(C(F)(F)F)c3)[C@H](Cc3ccccc3)C1)CC2 [Compound 79]', 'log10 of IC50', 2.23),
  ('O=C(c1cc(C(F)(F)F)cc(C(F)(F)F)c1)N1CC[C@H](N2CCC3(CC2)CCN(S(=O)(=O)Cc2ccccc2)CC3)C[C@H]1Cc1ccccc1 [Compound 126]', 'log10 of IC50', 1.52),
  ('CC12CCC(C(=O)N3CCC4(CC3)CCN([C@H]3CCN(C(=O)c5cc(C(F)(F)F)cc(C(F)(F)F)c5)[C@H](Cc5ccccc5)C3)CC4)(OC1=O)C2(C)C (some centres unmarked) [Compound 61]', 'log10 of IC50', 2.42),
  ('O=C(c1ccc2c(c1)OCO2)N1CCC2(CC1)CCN([C@@H]1CCN(C(=O)c3cc(C(F)(F)F)cc(C(F)(F)F)c3)[C@H](Cc3ccccc3)C1)CC2 [Compound 63]', 'log10 of IC50', 2.64),
  ('CC(C)S(=O)(=O)N1CCC2(CCN([C@H]3CCN(C(=O)c4cc(C(F)(F)F)cc(C(F)(F)F)c4)[C@H](Cc4ccccc4)C3)CC2)CC1 [Compound 167]', 'log10 of IC50', 1.75),
  ('O=C1CCC(C(=O)N2CCC3(CC2)CCN([C@H]2CCN(C(=O)c4cc(C(F)(F)F)cc(C(F)(F)F)c4)[C@H](Cc4ccccc4)C2)CC3)=NN1 [Compound 58]', 'log10 of IC50', 1.81),
  ('C/C(=C\C(=O)N1CCC2(CC1)CCN([C@H]1CCN(C(=O)c3cc(C(F)(F)F)cc(C(F)(F)F)c3)[C@H](Cc3ccccc3)C1)CC2)C(F)(F)F [Compound 86]', 'log10 of IC50', 2.11),
  ('O=C(C1CCOC1)N1CCC2(CCN(C[C@H]3CCN(C(=O)c4cc(C(F)(F)F)cc(C(F)(F)F)c4)[C@H](Cc4ccccc4)C3)CC2)CC1 (some centres unmarked) [Compound 180]', 'log10 of IC50', 1.17);
